experiment: Analytical SEC of P3A1 loop variants (Superdex 75 increase 10/300 GL, PBS pH 7.4); assay type: physicochemical
Give SEC elution volume for every item shown.
Express it in mL; write the number only.

What does the record list as SEC elution volume for P3A1 G1 AE3: P3A1 G1 loop variant VNAR, SEQ ID NO: 77 (protein) TRVDQSPSSLSASVGDRVTITCVLTGTRYGLYSTYWYRKNPGSSDEERISISGRYSESVNKGTKSFTLTISSLQPEDSATYYCRAREARHPWLRQWYDGAGTKVEIKQACKAHHHHHHG ? 17.3

Which measured SEC elution volume value corresponds to P3A1 G1 NAG8: P3A1 G1 loop variant VNAR, SEQ ID NO: 81 (protein) TRVDQSPSSLSASVGDRVTITCVLTGTKYGLYATYWYRKNPGSPNKDRMIIGGRYSESVNNGTKSFTLTISSLQPEDSATYYCRAREARHPWLRQWYDGAGTKVEIKQACKAHHHHHHGAEFEQKLISEEDLG ? 14.8

Which SEC elution volume is listed for P3A1 G1: humanised version of the ROR1 binding VNAR P3A1, SEQ ID NO: 114 (protein) TRVDQTPSSLSASVGDRVTITCVLTDTSYGLYSTYWYRKNPGSSNKEQISISGRYSESVNKGTKSFTLTISSLQPEDSATYYCRAREARHPWLRQWYDGAGTKVEIKQASGAHHHHHHGAEFEQKLISEEDL ? 15.47

# SEC elution volume lookup, item P3A1 G1 NAC6: P3A1 G1 loop variant VNAR, SEQ ID NO: 79 (protein) TRVDQSPSSLSASVGDRVTITCVLTDTRYALYSTYWYRKNPGSTDEERISIGGRYSESVNKGSKSFTLTISSLQPEDSATYYCRAREARHPWLRQWYDGAGTKVEIKQACKAHHHHHHG 17.3
